biological target: TGFβ1 (Homo sapiens); test: filter; conditions: 2'-F pyrimidines; 3' fixed sequence removed; plateau 20%
Attribute Measured: pKd
In plain terms, pKd is the concentration in mol/L turned into minus its base-10 logarithm.

For the sequence shown here, GGGAGAGGGGUCUGGAAUUUUUGGNUUACCCGUACGCCAGACGACUCGCCCGA [30NtruNc 9] , give the reported pKd.
10.00

###

biological target: TGFβ1 (Homo sapiens) (UniProt P01137); test: filter; details: 2'-F pyrimidines; 3' fixed sequence removed; plateau 15%
Sequence (P01137 279-390): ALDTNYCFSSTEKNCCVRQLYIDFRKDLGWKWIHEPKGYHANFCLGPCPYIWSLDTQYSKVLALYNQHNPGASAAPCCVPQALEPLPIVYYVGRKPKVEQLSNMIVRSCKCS
The sequences listed here are annotated with their pKd.
In plain terms, pKd is the concentration in mol/L turned into minus its base-10 logarithm.

# Residue Sequence, Number
rows = [
    ("GGGAGANCUGGUAAUUUUGGUUUANCCGUAUNCCCAGACGACUCGCCCGA [30NtruNc 32]", 7.66),
]

Please find the next sequence below.
For the sequence shown here, GGGAGCGGAAUUUUUGUGUAGACGUAUGCCGCUUUGNCCAGACGACUCGCCCGA [30NtruNc 37] , give the reported pKd.
10.08

###

biological target: TGFβ1 (Homo sapiens) (UniProt P01137); test: filter; details: 2'-F pyrimidines; 3' fixed sequence removed; plateau 25%
Attribute Measured: pKd
In plain terms, pKd is the concentration in mol/L turned into minus its base-10 logarithm.

For the sequence shown here, GGGAGGGUUAACCGUUAAGACGGCGUNAUUUUGUCCCCAGACGACUCGCCCGA [30NtruNc 7] , give the reported pKd.
8.70
